Ref: paper PMC8838532

parameter: melting point

Record Cc1ccc2c(c1)C(=O)C(=O)N2Cc1cn(-c2ccc(C)c(Nc3nccc(-c4cccnc4)n3)c2)nn1 . Reported melting point: 235 to 237 °C

Input Cc1ccc(-n2cc(CN3C(=O)C(=O)c4cc(F)ccc43)nn2)cc1Nc1nccc(-c2cccnc2)n1 . Output melting point: 251 to 253 °C

Reported melting point for Cc1ccc(-n2cc(CN3C(=O)C(F)(F)c4ccccc43)nn2)cc1Nc1nccc(-c2cccnc2)n1 was 222 °C

In plain terms, Cc1ccc2c(c1)C(F)(F)C(=O)N2Cc1cn(-c2ccc(C)c(Nc3nccc(-c4cccnc4)n3)c2)nn1 has a documented melting point of 102 to 104 °C
